measurement-setup: 298.15 K; 101.33 kPa; Liquid
experimental-endpoint: mass density (kg/m3)

CCCCCC : 655.07
CC(C)(C)O : 780.78
CC(C)CO : 797.77
CCCCCl : 880.69

====

measurement-setup: 298.15 K; 101.33 kPa; Liquid; Capillary tube (Ostwald / Ubbelohde) method
experimental-endpoint: viscosity (mPa·s)

# example entries with known answers
CC(C)CO [2-methyl-1-propanol] : 3.353
CCCCCl [1-chlorobutane] : 0.4235

I = CC(C)(C)O [2-methylpropan-2-ol]
II = CCCCCC [hexane]
Data request: Which entry has a larger number for viscosity, I or II ? API: response body contains the label of the selected item.
Data returned: I
(I: 4.384 mPa·s, II: 0.2949 mPa·s)

Hey, just so you know, these numbers are from the NIST ThermoML archive (doi:10.1021/je800048f).
